assay: Pharmacokinetics test in rats (plasma); type: in vivo, SD rats; conditions: SD, rat, plasma, 2.5 mg/kg, po, n = 3
Endpoint name: AUC (ng·h/mL)

>>> assay_value("COc1ccc2cc(C=Cc3ccc(N(C)C)cc3)oc2c1")
908
>>> assay_value("CNc1ccc(C=Cc2cc3cc(OC)ccc3o2)cc1")
516

====

target: beta-amyloid 42 (Aβ42) (Homo sapiens); construct: Beta-amyloid 42 (Aβ42) was dissolved in dimethylsulfoxide (DMSO); assay: Inhibitory effect on the formation of beta-amyloid fibrils in vitro (ThT fluorescence assay); format: biochemical; settings: 10 μM compound; Aβ42 25 μM; experiment of Table 7; read-out: % Inhibition (10 μM)
Sequence (P05067 672-713 limits assumed): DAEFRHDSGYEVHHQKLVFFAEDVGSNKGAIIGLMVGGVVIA
Given measured inhibition at 10 µM, output condition met if it is greater than or equal to 70% and condition not met if not.

>>> label_value("COc1cc(/C=C/C(=O)CC(=O)/C=C/c2ccc(O)c(OC)c2)ccc1O [curcumin, reference compound]")
"condition met"
>>> label_value("COc1ccc2cc(C=Cc3ccc(N(C)C)cc3)oc2c1")
"condition met"
>>> label_value("CNc1ccc(C=Cc2cc3cc(OC)ccc3o2)cc1")
"condition met"
>>> label_value("CN(C)c1ccc(/C=C/c2nc3ccccc3s2)cc1 [Comparative Example 2, reference compound]")
"condition not met"
>>> label_value("CN(C)c1ncc(/C=C/c2nc3ccccc3o2)s1 [Comparative Example 1, reference compound]")
"condition not met"
